- Test system: HOP-62 NSCLC
- METHOD_NOTES: NCI-60 one-dose screen, 48 h (100 = growth as untreated, 0 = no growth, -100 = all killed)
- ASSAY_CONDITIONS: 10 µM unless noted
This is part of a sample that, as a whole, favours compounds with a hit. Of some 83,000 tested, about 20% had one in any assay.
METRIC: growth (%)

# MOLECULE, UNIT_ANNOTATION, MEASURED_NUMBER
measured = [
    ("c1ccc(-c2ccc3c(c2)C2(CCNCC2)CN3)cc1", "%", 95.2),
    ("O=C(O)c1cn(C2CC2)c2cc(N3CCN(C(=O)N/N=C/c4cccc5ccccc45)CC3)c(F)cc2c1=O", "%", 95.2),
    ("N[C@@H]1CCC[C@H]1NCCCCN1C(=O)c2cccc3cc([N+](=O)[O-])cc(c23)C1=O", "%", 31.7),
    ("O=C(O)CCCCCCCCCCN1C(=O)/C(=C2/C(=O)N(CC(=O)O)c3ccc(Br)cc32)SC1=S", "%", 102),
    ("Cc1nc(N/N=C/c2cn(-c3ccccc3)nc2-c2cc3ccccc3oc2=O)sc1N=Nc1ccccc1", "%", 66),
    ("O=C(NCc1ccc(Cn2c(=O)sn(-c3ccccc3)c2=O)cc1)OCc1ccc2cccc(O)c2n1", "%", -58.2),
    ("CCCn1c(=S)sc2c(NNC(C)=O)nc(C)nc21", "%", 78.3),
    ("Cc1ccc2cnc(N)c(C#Cc3cc(C(=O)Nc4ccc(CN5CCN(C)CC5)c(C(F)(F)F)c4)cnc3C)c2c1", "%", -35.9),
    ("CC1(C)CC[C@]23CC[C@]4(C)[C@H](CC[C@@H]5[C@@]6(C)C/C(=C/O)C(=O)C(C)(C)[C@@H]6CC[C@]54C)[C@H]2[C@H]1OC3", "%", 102),
    ("Cn1c(=O)[nH]c(=O)c2nc3c(nc21)-c1ccccc1C3=O", "%", 94.3),
    ("CN(C)CCC(CCN(C)C)(C(=O)O)c1ccccc1", "%", 94),
    ("Cc1ccc(OCCOCCOCCOCCOCCOc2ccc(C)n(O)c2=S)c(=S)n1O", "%", 10.5),
    ("O=c1cc(CNc2cc(F)cc(F)c2)c2ccc(I)cc2[nH]1", "%", 37.5),
    ("COc1ccc2c(c1)oc1c(C)c3c(c(C)c12)C(=O)N(CCOS(C)(=O)=O)C3=O", "%", 103),
    ("CCCc1cc(=O)oc2c(C(=O)CC(C)C)c(O)c(CC=C(C)C)c(O)c12", "%", 51.1),
    ("Oc1nc(NCc2ccccc2)sc1/C=C1\\C=Nc2ncccc21", "%", 56.1),
    ("CCN(CC)CCCNc1cc(OC)c(OC)c2cccnc12", "%", 58.3),
    ("Nc1ncnc2c1N=C(c1ccc(F)cc1)CC(c1cccc(Nc3ccnc4cc(Cl)ccc34)c1)N2 (stereo not given)", "%", 73.5),
    ("CCn1cc(C(=O)O)c(=O)c2cc(F)c(N3CCN(CC(=O)Nc4ccccc4)C(C)C3)c(F)c21 (stereo not given)", "%", 101),
    ("Cc1nc2sc(C(=O)Nc3ccccn3)c(N)c2cc1C(C)O (stereo not given)", "%", 63.9),
]
